This listing pairs substances with measured Relative binding activity, DRB5.
Target: HLA-DRB5 (DRB5*0101) (Homo sapiens, UniProt P01903+Q30154)
Experiment: HLA II/peptide competition binding assay, DRB5
Conditions: ratio of IC50 of competitor peptide to IC50 of reference peptide; mean of at least two independent experiments; less than 100 = active

substance | Relative binding activity, DRB5
A E W A W G P C T P S S K D C (AEWAWGPCTPSSKDC) [MDK 38-52] | >2 100
C R V P C N W K K E F G A D C (CRVPCNWKKEFGADC) [MDK 70-84] | >2 100
E N W G A C D G G T G T K V R (ENWGACDGGTGTKVR) [MDK 89-103] | >2 100

----------
Tested on: 12 predominant HLA II molecules
Test: HLA II/peptide binding assays, count over the panel
Parameters: species or system human
Details: relative activity of less than 100 characterizes the active peptides
Would you please tag the item Y when its Total (number of the 12 predominant HLA II molecules bound) is 4 or above, and N when it is below?

substance | qualitative-label
E N W G A C D G G T G T K V R (ENWGACDGGTGTKVR) [MDK 89-103] | N
A E W A W G P C T P S S K D C (AEWAWGPCTPSSKDC) [MDK 38-52] | N
T S A V A K K K D K V K K G G (TSAVAKKKDKVKKGG) [MDK 18-32] | N
R G F L L L T L L A L L A L T (RGFLLLTLLALLALT; MDK 4-18 peptide) | Y
M Q H R G F L L L T L L A L L (MQHRGFLLLTLLALL; MDK 1-15 peptide) | Y
C G V G F R E G T C G A Q T Q (CGVGFREGTCGAQTQ) [MDK 52-64] | N

FYI, the data here is from patent US20110159022A1.
